Measured values drawn from PubChem BioAssay (NCATS) for this set.

- assay-protocol: Primary qHTS to identify inhibitors of SARS-CoV-2 cell entry (AID 1645846)
- condition: SARS-CoV-2 pseudovirus cell entry assay, luminescence; at 57.1 µM (top of the series) unless noted
Records with an inconclusive call do not appear.
Hi there, I'd appreciate the recorded activity change, negative = inhibition for every entry that follows.
Numbers only, in %.

Solved cases below.
[[record]]
compound = "C[C@]1(c2nc3c(C(N)=O)cccc3[nH]2)CCCN1"
numeric_readout = -3.68

[[record]]
compound = "Cc1cc(O)c2c(c1)C(=O)c1cc(O)cc(O)c1C2=O"
numeric_readout = 3.76

[[record]]
compound = "C[C@]12CC[C@@H]3c4ccc(OC(=O)c5ccccc5)cc4CC[C@H]3[C@@H]1CC[C@@H]2O"
numeric_readout = -3.2


Fill in activity change, negative = inhibition for each of the 8 compounds listed.
1. O=C(CN1C(=O)C2(CCCC2)NC[C@H]1c1cc(F)cc(F)c1)Nc1ccc2c(c1)C[C@@]1(C2)C(=O)Nc2ncccc21
2. C=C[C@@H]1CN2CCC1C[C@H]2[C@H](O)c1ccnc2ccc(OC)cc12 (stereo partly specified)
3. COc1c(N2C[C@@H]3CCCN[C@H]3C2)c(F)cc2c(=O)c(C(=O)O)cn(C3CC3)c12
4. COc1ccc2cc(OCC3(C(=O)O)CN(C(=O)c4ccc(F)cc4)C3)ccc2c1
5. O=C(Nc1ccccc1Br)N[C@@H]1CCN(c2ccc(C(F)(F)F)cn2)C1
6. Nc1[nH]nc2nnc(-c3c(-c4ccccc4)nn4ccccc34)cc12
7. CN(C)c1ccc2cc(C(=O)N[C@@H](CCCN=C(N)CCl)C(=O)NCc3ccccc3)ccc2c1
8. NC(=O)c1ncn([C@@H]2O[C@H](CO)[C@@H](O)[C@H]2O)n1

Reply:
1: -13.1; 2: -48.9; 3: 2.05; 4: -2.33; 5: -27.3; 6: -11.3; 7: -26.4; 8: -11.7

Fill in activity change, negative = inhibition for each of the 5 compounds listed.
1. Nc1ccn([C@@H]2O[C@H](CO)[C@@H](O)[C@H]2O)c(=O)n1
2. OCCCNc1cc(-c2ccnc(Nc3cccc(Cl)c3)n2)ccn1
3. NC(N)=NC(N)=NCCc1ccccc1
4. COc1ccc(COc2cc3oc(=O)c4cc(C(C)O)ccc4c3cc2OC)cc1 (stereo unspecified)
5. CN1c2cc(O)c(N=NC(N)=O)cc2CC1S(=O)(=O)O (stereo unspecified)

Reply:
-8.54
-94.2
-16.7
-25.6
4.67

Fill in activity change, negative = inhibition for each of the 2 compounds listed.
1. OCc1ccc(-c2nn(Cc3ccccc3)c3ccccc23)o1
2. Cc1cc(Cl)ccc1OCCCC(=O)NO

Reply:
[-87.6, -10.4]
